Reference source for all entries: ChEMBL document CHEMBL1143718

- Test system: HeLa
- Test method notes: Cytotoxicity against human HeLa cells after 72 hrs by SRB assay
- Assay type: functional, cell-based
Assignment: determine reported pIC50 for the given molecules.
Remember, pIC50 is on a log scale: it is -log10 of the molar concentration.

Indicate the recorded pIC50 value for this molecule: CCC1=C[C@@H]2CN(CCc3c([nH]c4ccccc34)[C@@](C(=O)OC)(c3cc4c(cc3OC)N(C)[C@H]3[C@](O)(CNC(=O)OC)[C@H](OC(C)=O)[C@]5(CC)C=CCN6CC[C@]43[C@@H]65)C2)C1 8.05

For the molecule CCC1=C[C@@H]2CN(C1)Cc1c([nH]c3ccccc13)[C@@](C(=O)OC)(c1cc3c(cc1OC)N(C)[C@H]1[C@@](O)(C(=O)OC)[C@H](OC(C)=O)[C@]4(CC)C=CCN5CC[C@]31[C@@H]54)C2 , give its reported pIC50. 7.59

Answer with the recorded pIC50 of CCC1=C[C@@H]2CN(CCc3c([nH]c4ccccc34)[C@@](C(=O)OC)(c3cc4c(cc3OC)N(C)[C@H]3[C@](O)(CNC(=O)OC5CCCC5)[C@H](OC(C)=O)[C@]5(CC)C=CCN6CC[C@]43[C@@H]65)C2)C1 only. 6.88

Respond only with pIC50 recorded for CCC1=C[C@@H]2CN(CCc3c([nH]c4ccccc34)[C@@](C(=O)OC)(c3cc4c(cc3OC)N(C)[C@H]3[C@](O)(CNC(=O)OCc5ccc(Cl)cc5)[C@H](OC(C)=O)[C@]5(CC)C=CCN6CC[C@]43[C@@H]65)C2)C1 8.22

Entry CCC1=C[C@@H]2CN(CCc3c([nH]c4ccccc34)[C@@](C(=O)OC)(c3cc4c(cc3OC)N(C)[C@H]3[C@](O)(CNC(=O)Oc5ccccc5OC)[C@H](OC(C)=O)[C@]5(CC)C=CCN6CC[C@]43[C@@H]65)C2)C1 needs its pIC50 filled in; supply it. 6.83

Please supply the value of reported pIC50 for the item CCC1=C[C@@H]2CN(CCc3c([nH]c4ccccc34)[C@@](C(=O)OC)(c3cc4c(cc3OC)N(C)[C@H]3[C@](O)(CNC(=O)OCCBr)[C@H](OC(C)=O)[C@]5(CC)C=CCN6CC[C@]43[C@@H]65)C2)C1 7.52

Return reported pIC50. Input molecule: CCOC(=O)NC[C@]1(O)[C@H](OC(C)=O)[C@]2(CC)C=CCN3CC[C@@]4(c5cc([C@@]6(C(=O)OC)C[C@@H]7C=C(CC)CN(CCc8c6[nH]c6ccccc86)C7)c(OC)cc5N(C)[C@@H]14)[C@@H]32 7.80

Provide measured pIC50 value, entry: CCC1=C[C@@H]2CN(CCc3c([nH]c4ccccc34)[C@@](C(=O)OC)(c3cc4c(cc3OC)N(C)[C@H]3[C@](O)(CNC(=O)OC5CCC5)[C@H](OC(C)=O)[C@]5(CC)C=CCN6CC[C@]43[C@@H]65)C2)C1 7.64
